# System: A498 renal
# test-summary: NCI-60 one-dose screen, 48 h (100 = growth as untreated, 0 = no growth, -100 = all killed)
# measurement-context: 10 µM
The panel holds about 83,000 compounds, 20% with a hit somewhere; the sample as a whole holds those more often.

# molecule, target-desc, value-unit, growth
measured = [
    ("CN1CCC(c2c[nH]c3ccccc23)C1 (stereo not drawn)", "A498 renal", "%", 113),
    ("C=C1C[C@](OC)([C@H](O)C(=O)N[C@@H](OC)[C@@H]2C[C@@H](O)C(C)(C)[C@@H](C[C@@H](COC)OC)O2)O[C@H](C)[C@@H]1C", "A498 renal", "%", -87.1),
    ("COC(=O)[C@@]1(C)CC[C@]2(C)CC[C@]3(C)C4=CC=C5C(=CC(=O)C(O)=C5C)[C@]4(C)CC[C@@]3(C)[C@@H]2C1", "A498 renal", "%", -97.9),
    ("CC1(C)CN1P(=O)(N1CC1(C)C)N1CC1(C)C (stereo not drawn)", "A498 renal", "%", 102),
    ("CC(=O)O[C@H](C[C@H](C(C)C)N(C)C(=O)[C@@H](NC(=O)[C@H]1CCCCN1C)C(C)C)c1cccc(C(=O)N[C@@H](Cc2ccccc2)C[C@H](C)C(=O)O)n1", "A498 renal", "%", -13.2),
    ("CN1C(=O)C23CC4(C56CC78SSC(CO)(C(=O)N7C5Nc5ccccc56)N(C)C8=O)c5ccccc5NC4N2C(=O)C1(CO)SS3 (stereo not drawn)", "A498 renal", "%", -98.9),
    ("O=C([O][Hg][c]1ccccc1)c1ccccc1", "A498 renal", "%", 40.7),
    ("N#CC1(c2ccccc2)CCN(Cc2ccccc2)CC1", "A498 renal", "%", 64.8),
]

---

# Test system: NCI-H522 lung
# test-summary: NCI-60 one-dose screen, 48 h
# measurement-context: 10 µM unless noted
This is part of a sample that, as a whole, favours compounds with a hit. Of some 83,000 tested, about 20% had one in any assay. Calls of active or inactive are those of the source. Rule for the calls: active = growth percent below 10; inactive = the rest.
Possible outcomes: active, inactive

# compound, discrete-label
rows = [
    ("COc1cc2c(cc1OCCCn1c(-c3ccccn3)nc3ccccc31)N=C[C@@H]1CCCN1C2=O", "active"),
    ("CN(C)C(=O)Oc1ccccc1", "inactive"),
    ("COc1ccc(C(O)(C(=O)O)c2ccc(OC)cc2)cc1", "inactive"),
    ("O=C1OCC2=C1C(c1ccccc1)c1cc3c(cc1N2)OCO3 (stereo unspecified)", "active"),
    ("COc1ccc2c(c1)c(-c1nc(-c3cn(C)c4ncccc34)cs1)cn2CCCCN1CCCCC1", "active"),
    ("CC(CO)NC1CCCCC1 (stereo unspecified)", "inactive"),
]

---

# Tested on: U251 CNS
# test-summary: NCI-60 one-dose screen, 48 h (100 = growth as untreated, 0 = no growth, -100 = all killed)
# measurement-context: 10 µM unless noted
# Description: Growth inhibition of the U251 human tumor cell line is measured as a screen for anti-cancer activity. Cells are grown in 96 well plates and exposed to the test compound for 48 hours. Compounds are tested at a single concentration, which is 10^-5 M for most compounds. The reported endpoint is percent growth (GI% or GIPRCNT), where numbers from 0 - 100% represent growth inhibition, and numbers from -100% - 0 represent cell death. For example, a value of 40 represents 60% growth inhibition. […]
About 83,000 compounds went through this panel and 20% of them were active in at least one assay; those are over-represented in the sample as a whole.
Label yes (1) when growth is at or above 60%; otherwise label no (0).

# compound, target-desc, discrete-label
records = [
    ("COc1cc(/C=C/[N+](=O)[O-])cc(OC)c1", "U251 CNS", "no (0)"),
    ("C[n+]1c(/C=C/c2ccc(N(CCCl)CCCl)cc2)sc2ccccc21", "U251 CNS", "no (0)"),
    ("O=C(CC1(O)C(=O)N(Cc2ccccc2)c2ccc(F)cc21)c1ccc(C(=O)NCC2CCC3(CC2)OOC2(CCCCC2)OO3)cc1 (centres undefined)", "U251 CNS", "no (0)"),
    ("O=C1OCC2=C1C(c1ccccc1)c1cc3c(cc1N2)OCO3 (centres undefined)", "U251 CNS", "no (0)"),
    ("CCC(O)(CN)c1ccccc1 (centres undefined)", "U251 CNS", "yes (1)"),
    ("CC(=O)OC[C@]1(C)C=C2C(=O)[C@](C)(O)C3(CC3)C(C)=C2[C@H]1O", "U251 CNS", "no (0)"),
    ("CCNc1nc(Cl)nc(NCC)n1", "U251 CNS", "yes (1)"),
    ("CCC(C)(C)[C@H](NC(=O)[C@H]1CCCCN1C)C(=O)N(C)[C@H](C[C@@H](OC(C)=O)c1nc(C(=O)N[C@@H](Cc2ccccc2)C[C@H](C)C(=O)O)cs1)C(C)C", "U251 CNS", "no (0)"),
]
